test.method.notes: Blood concentration of E1 after oral dosing of the compounds to mice (HPLC)
Format: in vivo
test.conditions: mouse, 200 umol/kg; Expt. 2; 60 min after single oral gavage dose of 0.2mmole/kg in 1% carboxymethyl cellulose; fasted female Balb/c mice; pooled blood of 3 mice; read-out: 9-(3-Hydroxypropoxy)guanine (E1) conc. (µM) in blood at time (min) after dosing: 60
reported.metric: concentration at 1 h (µM)
Numeric only. Scale: µM

Prompt: Please look at this molecule and report its concentration at 1 h: Nc1nc(O)c2ncn(OCCCO)c2n1 [Example E1, 9-(3-hydroxyprop-1-oxy)guanine]
Completion: 3.3

---

test.method.notes: Blood concentration of E1 after oral dosing of the compounds to mice (HPLC)
Format: in vivo
test.conditions: Expt. 1; 15 min after single oral gavage dose of 0.2mmole/kg in 1% carboxymethyl cellulose; fasted female Balb/c mice; pooled blood of 3 mice; read-out: 9-(3-Hydroxypropoxy)guanine (E1) conc. (µM) in blood at time (min) after dosing: 15
reported.metric: concentration (µM)
Output spec: scalar in µM, unitless text.

Prompt: Look up concentration of Nc1nc(O)c2ncn(OCCCO)c2n1 [Example E1, 9-(3-hydroxyprop-1-oxy)guanine] and report it.
Completion: 5.2

---

test.method.notes: Blood concentration of E1 after oral dosing of the compounds to mice (HPLC)
Format: in vivo
test.conditions: Expt. 2; 15 min after single oral gavage dose of 0.2mmole/kg in 1% carboxymethyl cellulose; fasted female Balb/c mice; pooled blood of 3 mice; read-out: 9-(3-Hydroxypropoxy)guanine (E1) conc. (µM) in blood at time (min) after dosing: 15
reported.metric: concentration (µM)
# number only, unit µM dropped from output

Prompt: Supply concentration value. Item: Nc1nc(O)c2ncn(OCCCO)c2n1 [Example E1, 9-(3-hydroxyprop-1-oxy)guanine]
Completion: 11
